# System Name: T1, human CD30, native, expressed on cells (human)
# T1 construct: also called native CD30; CD30 on L540, L428, A431/CD30, Karpas299, SUDHL-1 and other CD30-positive cells
# T1 chain: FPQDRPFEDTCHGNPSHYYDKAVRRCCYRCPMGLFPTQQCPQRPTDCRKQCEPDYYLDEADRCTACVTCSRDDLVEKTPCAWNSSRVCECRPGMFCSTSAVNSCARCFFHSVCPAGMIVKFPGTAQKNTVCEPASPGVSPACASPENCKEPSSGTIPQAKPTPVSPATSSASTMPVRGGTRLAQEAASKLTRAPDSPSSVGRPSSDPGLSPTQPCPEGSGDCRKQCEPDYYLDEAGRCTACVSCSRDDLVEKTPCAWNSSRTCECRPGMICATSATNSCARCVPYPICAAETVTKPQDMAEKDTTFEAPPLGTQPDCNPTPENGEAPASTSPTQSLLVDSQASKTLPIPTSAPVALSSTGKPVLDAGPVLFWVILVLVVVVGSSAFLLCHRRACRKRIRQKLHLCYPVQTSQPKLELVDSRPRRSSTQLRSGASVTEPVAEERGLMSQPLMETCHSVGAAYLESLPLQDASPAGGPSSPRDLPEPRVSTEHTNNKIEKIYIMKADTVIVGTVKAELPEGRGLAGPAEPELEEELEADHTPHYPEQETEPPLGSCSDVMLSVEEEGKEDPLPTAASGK
# Experimental Details: competitive FACS on L540 cells, unlabeled MAb 2.5 µg/ml; competitor: biotin-T24
Measured Property: inhibition of the binding of biotin-MAb (%)

Below: 3 binders and their reported inhibition of the binding of biotin-MAb (%).
[Q] Supply reported inhibition of the binding of biotin-MAb (%) belonging to this binder: T13 MAb (antibody, V domains shown) VH: QVQLQQSGAELAKPGASVKMSCKASGYTFTTYWMHWVKQRPGQGLEWIGYINPSTGYTDYNEKFKDKATLTADKSSSTAYMQLSSLTSEDSAVYYCVRRGSYDGNPFAYWGQGTLVSVSA VL: DIVMTQSHKFMSTSVGDRVTITCKASQDVSTAVAWYQQKPGHSPKLLIYWASTRHTGVPDRFTGSGSGTDYTLTISSVQVEDLALYYCQQHYSTPFTFGSGTKLEIKR
[A] 40.1%

[Q] Return inhibition of the binding of biotin-MAb (%) for the following binder: T25 MAb (antibody, V domains shown) VH: QVTLKESGPGILQPSQTLSLTCSFSGFSLNTSGVGVGWIRQPSGKGLEWLAHIWWDDDERYNPVLKSRLTISKDTSSNQVFLKIANVDTADSATYYCVRSMVAWFPYWGRGTLVTVSA VL: DIVMSQSPSSLAVSVGEKFTVNCKSSQSLLYSSNQKNFLAWYQQKPGQSPKLLIYWASTRESGVPDRFIGSGSGTDFTLTISSVKAEDLAVYYCQQHYRYPWTFGGGTKLEIKR
[A] 0%

[Q] Identify the reported inhibition of the binding of biotin-MAb (%) for the following entry. T6 MAb (antibody, V domains shown) VH: QVQLKESGPGLVTPSQSLSITCTVSGFSLSKYSIHWVRQPPGRGLEWLGMIWGVENTDYNSALKSRLSISKDNSKSQVFLKMNSLQSDDTAMYYCARKDLGLYGMNYWGQGISVTVSA VL: DIVMTQSQKFMSTSVGDRVSVTCKASQNVGTNVAWYQQKPGQSPKALFYSASYRYSGVPDRFIGSGSGTVFTLTISNVQSEDLAEYFCQQYNTYPLTFGSGTKLEIER
[A] 3.9%

Could you now look at the following binder, please?
[Q] Tell me its inhibition of the binding of biotin-MAb (%) given T24 MAb (antibody, V domains shown) VH: QVQLQQPGAELVRPGASVKLSCKASGYSFTSYWIDWVKQRPGQGLEWIGNIYPSNAYTNYNQKFKDKATLTVDKSSSTAYMQLSSPTSEDSAVYYCTSVLDYFYAMDYWGQGTSVTVSS VL: DIQMTQTTSSLSASLGDRVTISCRASQDISNYLNWYQQKPDGTVKLLIYYTSRLHSGVPSRFSGSGSGTDYSLTISNLEQEDIATYFCQQVNTLPRTFGGGTKLEIKR as the entry.
[A] 82.8%
